Subject of test: T1, human flt3 on BAF/hflt3 cells (BAF-BO3 cells transfected with human flt3 cDNA) (human, UniProt P36888 27-993)
T1 sequence (looked up): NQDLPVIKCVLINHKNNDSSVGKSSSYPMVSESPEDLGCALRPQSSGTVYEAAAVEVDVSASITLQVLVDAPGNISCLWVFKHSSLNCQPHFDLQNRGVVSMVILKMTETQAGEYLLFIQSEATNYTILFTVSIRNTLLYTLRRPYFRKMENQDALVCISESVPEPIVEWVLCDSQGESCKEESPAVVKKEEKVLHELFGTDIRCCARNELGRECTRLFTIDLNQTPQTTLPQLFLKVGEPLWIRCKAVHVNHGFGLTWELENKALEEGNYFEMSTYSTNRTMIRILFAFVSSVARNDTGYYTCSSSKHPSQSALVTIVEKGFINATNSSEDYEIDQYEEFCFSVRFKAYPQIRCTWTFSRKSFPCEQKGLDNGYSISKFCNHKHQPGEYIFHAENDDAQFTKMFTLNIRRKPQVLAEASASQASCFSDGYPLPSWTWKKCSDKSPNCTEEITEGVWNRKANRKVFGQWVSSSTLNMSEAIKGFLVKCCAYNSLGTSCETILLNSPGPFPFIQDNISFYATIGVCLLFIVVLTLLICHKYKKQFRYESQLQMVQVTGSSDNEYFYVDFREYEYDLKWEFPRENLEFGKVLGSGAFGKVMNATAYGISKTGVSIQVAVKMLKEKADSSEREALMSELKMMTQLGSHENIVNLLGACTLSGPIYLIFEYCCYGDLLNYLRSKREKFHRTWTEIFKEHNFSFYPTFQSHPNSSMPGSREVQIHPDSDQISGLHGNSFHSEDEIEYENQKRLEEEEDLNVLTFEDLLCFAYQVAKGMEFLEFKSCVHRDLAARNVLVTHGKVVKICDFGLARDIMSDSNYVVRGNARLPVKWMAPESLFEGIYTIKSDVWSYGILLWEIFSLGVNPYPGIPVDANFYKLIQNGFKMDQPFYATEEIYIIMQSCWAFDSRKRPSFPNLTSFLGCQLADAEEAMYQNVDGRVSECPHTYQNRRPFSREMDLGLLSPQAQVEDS
Test name: cell-based or functional assay
Measure name: Sp.Ac. MUT / Sp.Ac. Wt (BAF/hflt3 cell proliferation units/ml per ng/ml purified protein)

Solved entries (count: 3):
Binder | Result
flt3-L quadruply substituted mutant L-3H/H8Y/K84E/Q122R (ligand, Constructed by PCR mutagenesis from K84E/Q122R, expressed in yeast and purified) HSGTQDCSFQYSPISSDFAVKIRELSDYLLQDYPVTVASNLQDEELCGGLWRLVLAQRWMERLKTVAGSKMQGLLERVNTEIHFVTECAFQPPPSCLRFVQTNISRLLQETSEQLVALKPWITRRNFARCLELQCQPDSSTLPPPWSPRPLEATAP | 3 ratio to wild type
flt3-L multiple mutant K84E/Q122R (ligand, also called double mutant K84E/Q122R) LSGTQDCSFQHSPISSDFAVKIRELSDYLLQDYPVTVASNLQDEELCGGLWRLVLAQRWMERLKTVAGSKMQGLLERVNTEIHFVTECAFQPPPSCLRFVQTNISRLLQETSEQLVALKPWITRRNFARCLELQCQPDSSTLPPPWSPRPLEATAP | 2.9 ratio to wild type
wild type flt3-L (yeast-derived recombinant human flt3 Ligand) (ligand, Secreted from yeast (alpha-factor leader, final plasmid PIXY797); Leu-Ser-Gly stands before Thr1 of the mature protein (80% of chains; 20% begin at Ser); Noncovalent dimer (dimer peak collected); also called WT; 125I-flt3-L (radiolabelled form)) LSGTQDCSFQHSPISSDFAVKIRELSDYLLQDYPVTVASNLQDEELCGGLWRLVLAQRWMERLKTVAGSKMQGLLERVNTEIHFVTKCAFQPPPSCLRFVQTNISRLLQETSEQLVALKPWITRQNFARCLELQCQPDSSTLPPPWSPRPLEATAP | 1 ratio to wild type

Next, consider the following binder.
Value of Sp.Ac. MUT / Sp.Ac. Wt (BAF/hflt3 cell proliferation units/ml per ng/ml purified protein) reported for the binder flt3-L mutant H8Y (ligand, yeast supernatant and purified protein (dimer)) LSGTQDCSFQYSPISSDFAVKIRELSDYLLQDYPVTVASNLQDEELCGGLWRLVLAQRWMERLKTVAGSKMQGLLERVNTEIHFVTKCAFQPPPSCLRFVQTNISRLLQETSEQLVALKPWITRQNFARCLELQCQPDSSTLPPPWSPRPLEATAP is 2.1 ratio to wild type
